molecular target: Mouse ACVR2A (mouse, UniProt P27038 20-135, limits assumed); assay: ELISA; also: test concentration or dose not given here
Sequence (P27038 20-135 limits assumed): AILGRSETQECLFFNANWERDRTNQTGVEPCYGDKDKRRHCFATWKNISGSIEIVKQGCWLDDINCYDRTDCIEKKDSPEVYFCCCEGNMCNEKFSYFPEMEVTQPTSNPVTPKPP
experimentalEndpoint: optical density (OD)
Numbers only here, please. The scale is OD.

binder	valueUnit	readoutNumber
365_C12 (antibody, V domains shown, VH/VL only) VH: EVQLLESGGGLVQPGGSLRLSCAASGFTFSSYGMNWVRQAPGKGLEWVAGINYNSGYKSYADSVKGRFTISRDNSKNTLYLQMNSLRAEDTAVYYCARSANWHDTALDYWGQGTLVTVSS VL: DIQMTQSPSSLSASVGDRVTITCRASQSIVSYVNWYQQKPGKAPKLVIYAVTSLASGVPSRFSGSGSGTDFTLTISSLQPEDFATYYCQQSYDTPLTFGGGTKVEIK	OD	2.04

Next binder, optical density to be filled in.
Summary for this binder, 373_D06 (antibody, V domains shown, VH/VL only) VH: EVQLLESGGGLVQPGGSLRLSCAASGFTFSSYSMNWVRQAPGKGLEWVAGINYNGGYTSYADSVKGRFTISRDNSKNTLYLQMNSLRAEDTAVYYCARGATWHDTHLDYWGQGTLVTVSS VL: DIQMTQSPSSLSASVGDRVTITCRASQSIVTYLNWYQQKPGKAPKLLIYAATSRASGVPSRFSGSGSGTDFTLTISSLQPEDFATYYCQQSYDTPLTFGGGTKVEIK : optical density is 3.57
